Tested on: HCT-15 colon
Method Description: NCI-60 one-dose screen, 48 h (100 = growth as untreated, 0 = no growth, -100 = all killed)
Test Parameters: 10 µM unless noted
This is part of a sample that, as a whole, favours compounds with a hit. Of some 83,000 tested, about 20% had one in any assay.
Mark criterion not met for growth values under 20%, and criterion met for everything at or above.

Identify whether the reported growth of the following compound is 20% or greater: COc1ccc(OC)c(-c2c(C#N)c(-c3ccco3)nc3c2c(-c2ccccc2)nn3-c2ccccc2)c1
criterion met

Identify whether the reported growth of the following compound is 20% or greater: COc1cnc2c(c1)C(=O)c1c-2n(CCCNC2=NCCS2)c(=O)c2cc([N+](=O)[O-])ccc12
criterion not met

Identify whether the reported growth of the following compound is 20% or greater: Oc1cccc2oc(=S)[nH]c12
criterion met

Identify whether the reported growth of the following compound is 20% or greater: COc1ccc(-c2nc(SCC(=O)Nc3ccc(C(C)=O)cc3)[nH]c(=O)c2C#N)cc1
criterion met

Identify whether the reported growth of the following compound is 20% or greater: Cc1cc(N2CCOCC2)nc(N(CCCNc2ccnc3cc(Cl)ccc23)Cc2ccco2)n1
criterion met
